The origin of these recorded values is paper PMC2791442.

Test target: MqsA-F (Escherichia coli)
Sequence: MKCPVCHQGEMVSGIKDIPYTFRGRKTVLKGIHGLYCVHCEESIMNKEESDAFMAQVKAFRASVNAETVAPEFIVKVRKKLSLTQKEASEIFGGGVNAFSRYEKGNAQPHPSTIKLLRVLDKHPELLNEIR
Assay comment: EMSA
Applied conditions: EMSA: 200 ng protein, 5 ng 3'-biotin-labeled promoter DNA, 6% DNA retardation gel, 100 V at 4 C; binding buffer, salt and pH not stated

Residue sequence	binding
CGTGTATGTGGTGTGCGTTTTTCCATAACCCCCGCCTCCCTGTTACTTTAGTTATAACCTAAAAGGTTAATTACAGCAATGAAAAAGCACCTAAAAGGTTAGTTAGATGTACGGAGATAGTGACCACACAAAACGTATTCTTTAAGGAAAGTGATTGACCATATAAGAAAGTGGCGCATTAGTAGCGCCAGTTTGAAGCAGGAATTTATAAGGGAAGCTGGAGTCAGGCATCAC (double strand) [PmqsR]	binds
CAGTCATCCGGTATAGTTCTTCATAATCTCTGCAAAATCATCGTGTTGTAATATTCTCTCATCACTCTCCATCAAATTTTCTTTTTTTCTCCATAATTGGCGCAAAAGTGTTTTTTACACTTTCATTGTTTTACCGTTGCTCTGATTAATTGACGCTAAAGTCAGTAAAGTTAATCTCGTCAACACGGCACGCTACTTAAGAAAGCCGTAATAAATAACTGAAAGGAAGGATATAGAATATGCGTAAATTAACTGCACTGTTTGTTGCC (double strand) [Pspy]	binds
CCTGCAGAGTCAAACTGACATGTTTCATTTTTCCCGTTCCAGGCATTTTAATTCCTTCGCGTGTTTTCTGTCCAACCCTGCCTGCATGGCAGAAGGAATTCACCTGGTGTATTAAAGTGAATAATCATAAACCACTCACCTTTGTTGTTATTAGCAGCAGAACAATGATGTGGTTAGTTAATTAAAGCTGAAAATAAGCTTTTTGCCTGGATTTTTATGGCGGCTTACGCCGCCGTTGAAACTTTAATCATCACCCGCCACGCGGATCACCACTTTGC (double strand) [PmcbR]	binds
